The following molecules are listed with their measured mass density values.
- Condition Summary: 323.15 K; 101.33 kPa; Liquid; Vibrating tube method
API: value field is a number in kg/m3; no unit string.

Asked: Tell me the measured mass density of CCCCCO , please.
Given back: 792.17

Next:
Asked: Tell me the measured mass density of CCCCn1cc[n+](C)c1.N#CN=C=[N-] [1-butyl-3-methylimidazolium dicyanamide] , please.
Given back: 1044.42

Asked: Tell me the measured mass density of CC(C)O , please.
Given back: 759

Asked: Tell me the measured mass density of CCC(C)O (stereo unspecified) , please.
Given back: 780.44

Asked: Tell me the measured mass density of CCCCO , please.
Given back: 786.21

Asked: Tell me the measured mass density of CCCO , please.
Given back: 779.3

* * *

The following molecules are listed with their measured speed of sound values.
- Condition Summary: 323.15 K; 101.33 kPa; Liquid; Sing-around technique in a fixed-path interferometer
Numbers after ± are expanded uncertainties.
Answer with the figure and its unit, nothing else.

Please review the following examples before continuing.
Asked: Tell me the measured speed of sound of CCCCn1cc[n+](C)c1.N#CN=C=[N-] [1-butyl-3-methylimidazolium dicyanamide] , please.
Given back: 1667.3 ± 2.2 m/s

Asked: Tell me the measured speed of sound of CCCCCO [pentan-1-ol] , please.
Given back: 1192.8 ± 1.3 m/s

Asked: Tell me the measured speed of sound of CCCCO [butan-1-ol] , please.
Given back: 1156.9 ± 0.8 m/s

Asked: Tell me the measured speed of sound of CCCO [propan-1-ol] , please.
Given back: 1121.8 ± 0.8 m/s

Asked: Tell me the measured speed of sound of CCC(C)O (stereo unspecified) [butan-2-ol] , please.
Given back: 1120.3 ± 0.8 m/s

We next turn to a different molecule, shown below.
Asked: Tell me the measured speed of sound of CC(C)O [propan-2-ol] , please.
Given back: 1051.6 ± 0.8 m/s

* * *

- Condition Summary: 293.15 K; 101.33 kPa; Liquid; Vibrating tube method
Measured Metric: mass density (kg/m3)
API: value field is a number in kg/m3; no unit string.

Please review the following examples before continuing.
Asked: Tell me the measured mass density of CCCO [propan-1-ol] , please.
Given back: 803.87

Asked: Tell me the measured mass density of CCCCO [butan-1-ol] , please.
Given back: 809.53

Asked: Tell me the measured mass density of CCCCCO [pentan-1-ol] , please.
Given back: 814.54

Asked: Tell me the measured mass density of CCCCn1cc[n+](C)c1.N#CN=C=[N-] [1-butyl-3-methylimidazolium dicyanamide] , please.
Given back: 1063.32

Asked: Tell me the measured mass density of CCC(C)O (stereo unspecified) [butan-2-ol] , please.
Given back: 806.47

Next:
Asked: Tell me the measured mass density of CC(C)O [propan-2-ol] , please.
Given back: 785.4
